Test system: SK-OV-3 ovarian
Procedure Text: NCI tumour cell line growth inhibition, 48 h
# GI50 per entry
Observable: GI50

• Cc1cc(=O)n2nnc3c4ccccc4ccc3n12 = 2.72 µM
• C[CH2][Sn]([CH2]C)([O]C(=O)c1c(F)cccc1F)[O][Sn]([CH2]C)([CH2]C)[O]C(=O)c1c(F)cccc1F = 41.3 µM
• CC1(C)CC[C@]2(C(=O)Nc3ccccn3)CC[C@]3(C)C(=CC[C@@H]4[C@@]5(C)C/C(=C/c6ccncc6)C(=O)C(C)(C)[C@@H]5CC[C@]43C)[C@@H]2C1 = > 100 µM
• Cc1cc(Cl)ccc1OCc1nn2c(CCCCc3nnc4sc(COc5ccc(Cl)cc5C)nn34)nnc2s1 = 35.4 µM
• COc1ccc(-c2ccc(-c3ccc(C(=N)N)c(F)c3)s2)cc1 = 1.57 µM
• Nc1nc2cc(O)ccc2n2cc3c(F)cccc3c12 = 2.37 µM
• O=c1ccccc(-c2ccc(Br)cc2)c1O = 0.428 µM
• COc1ccc(/C=C2\COc3ccc(O)c(O)c3C2=O)cc1 = 0.923 µM
• C[CH2][Pb]([CH2]C)([CH2]C)[O]C(=O)COC = 1.55 µM
• COc1ccc(C(=S)N(C)NC(=O)CC(=O)NN(C)C(=S)c2ccc(OC)cc2)cc1 = > 100 µM
• O=c1ncc(I)cn1C1CC(O)C(CO)O1 (stereo not drawn) = 2100 µM
• Cc1nn2c(/C=N/N=C(N)N)c(-c3ccc(Cl)c([N+](=O)[O-])c3)nc2s1 = 2.85 µM
• Nc1c(C(=O)c2cccc(OC[C@@H](O)CO)c2)cnn1-c1ccc(F)cc1 = > 25 µM
• COc1cc(/C=C2\C(=O)Nc3ccccc32)cc(OC)c1O = 3.88 µM
• CC(C)Oc1ccc(-c2nn([C@@H](C)c3oc4ccc(F)cc4c(=O)c3-c3cccc(F)c3)c3ncnc(N)c23)cc1F = > 100 µM
• NCCCCCn1c2c(c3ccccc3c1=O)C(=O)c1ccccc1-2 = 0.531 µM
• [2H]c1nc(C)nc([2H])c1-c1cc(NC[C@@H](C)c2cccc3c(C(=O)NC)ccnc23)ncn1 = > 100 µM
• CCc1ccc(C(=O)/C=C/C23c4ccccc4C(c4ccccc42)C2C(=O)NC(=O)C23)cc1 (stereo not drawn) = 2.84 µM
